# subjectOfTest: T1, Peptide G (rat PAR-2), unbiotinylated (Rat (Rattus norvegicus))
# T1 construct: also called Peptide G No Biotin
# T1 peptide: GPNSKGRSLIGRLDTP
# assayText: SPR, antibody captured
propertyLabel: Kd

- binder: "H4H579P (antibody, human IgG4, V domains shown, also called H1H579P variable regions) VH: QVQLVESGGGVVQPGRSLRLSCVASGFTFSRYGMHWVRQAPGKGLEWLIVISYDGINKYYADSVKGRFTISRDNSKNTVYLQMNSLRAEDTGVYYCAKGDFWSGYFDYWGQGTLVTVSS VL: DIVMTQTPLSSPVTLGQPASISCRSSQSLVHSDGNTYLSWLHQRPGQPPRLLIYKISNRFSGVPDRFSGSGAGTDFTLQISRVEAEDVGIYYCMQGTQFPTFGGGTKVEIK"
  propertyLabel: "Kd"
  recordedResult: "134 nM"
